src = ChEMBL document CHEMBL5523765

Target: Proteasome Macropain subunit MB1 (Homo sapiens, UniProt P28074)
Sequence (P28074 whole entry): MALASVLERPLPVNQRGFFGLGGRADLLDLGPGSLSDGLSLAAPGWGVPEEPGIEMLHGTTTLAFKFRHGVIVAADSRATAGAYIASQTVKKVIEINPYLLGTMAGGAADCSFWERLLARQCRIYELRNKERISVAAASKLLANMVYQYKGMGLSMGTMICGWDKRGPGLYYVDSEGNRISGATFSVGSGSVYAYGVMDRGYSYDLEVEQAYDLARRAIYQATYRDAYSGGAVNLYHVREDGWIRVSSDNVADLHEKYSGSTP
Test: Inhibition of human 20s proteasome beta5 subunit mediated chymotrypsin-like activity using LLVY-R110 as substrate measured every three mins for 1 hr by fluorescence based SpectraMax M5e plate reader
quantity name: IC50 (µM)

1. CC(=O)N[C@H](C(=O)N[C@H](C(=O)NCC(=O)N[C@H]1CCC(=O)OB1O)[C@@H](C)O)C1CCCC1
2. CC[C@H](C)[C@H](NC(=O)[C@@H](NC(=O)c1cc(C)cc(C)c1)C1CCCC1)C(=O)NCC(=O)N[C@H]1CCC(=O)OB1O
Data request: Endpoint returns the identifier whose IC50 is numerically larger, either 1 or 2 . API: response body contains the label of the selected item.
Data returned: 1
(1: 35.6 µM, 2: 1 µM)

----------
Biological target: Subtilisin-like protease 1 (Plasmodium falciparum, UniProt O61142)
Sequence (O61142 whole entry): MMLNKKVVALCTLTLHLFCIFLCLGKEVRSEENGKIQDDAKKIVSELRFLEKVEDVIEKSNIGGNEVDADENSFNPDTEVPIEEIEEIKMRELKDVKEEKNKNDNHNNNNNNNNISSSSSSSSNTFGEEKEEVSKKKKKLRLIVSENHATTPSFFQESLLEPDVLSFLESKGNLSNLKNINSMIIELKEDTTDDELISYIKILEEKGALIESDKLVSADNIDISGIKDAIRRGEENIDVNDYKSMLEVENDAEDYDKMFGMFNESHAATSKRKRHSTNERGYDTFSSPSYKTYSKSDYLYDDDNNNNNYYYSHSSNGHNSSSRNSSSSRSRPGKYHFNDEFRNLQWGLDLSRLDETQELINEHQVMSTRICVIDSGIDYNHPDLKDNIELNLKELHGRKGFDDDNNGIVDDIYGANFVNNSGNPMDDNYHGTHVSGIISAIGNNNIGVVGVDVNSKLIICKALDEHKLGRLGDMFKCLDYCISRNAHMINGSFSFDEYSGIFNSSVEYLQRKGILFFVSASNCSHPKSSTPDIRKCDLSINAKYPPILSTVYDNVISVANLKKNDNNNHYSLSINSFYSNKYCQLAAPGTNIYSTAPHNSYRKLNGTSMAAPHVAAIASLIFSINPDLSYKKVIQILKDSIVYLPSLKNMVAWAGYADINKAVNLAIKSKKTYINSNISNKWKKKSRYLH
Experiment: Inhibition of recombinant Plasmodium falciparum SUB1 using Ac-CKITAQDDEESC-OH as fluorogenic substrate pre-incubated for 5 mins followed by substrate addition and measured every 3 mins for 60 mins by fluorescence based SpectraMax M5e plate reader
quantity name: IC50 (nM)
State the answer as a number, implicitly in nM.

Data request: Respond only with IC50 recorded for CC[C@H](C)[C@H](NC(=O)[C@@H](NC(=O)c1ccccc1)C1CCCC1)C(=O)NCC(=O)N[C@@H](C)B(O)O
Data returned: 3.2
